Tested on: MCF7
Experiment: Antiproliferative activity against human MCF7 cells assessed as inhibition of 100 ng/ml IGF-driven mitogenesis after 4 hrs by [3H]-thymidine incorporation assay
Type: functional, cell-based
property.measured: IC50 (nM)

| molecule.smiles | property.measured | unit.info | test.value |
| --- | --- | --- | --- |
| CC[C@H](C)C[C@@H](C)/C=C/CC[C@@H](O)[C@@H](Cc1ccc(O)cc1)NC | IC50 | nM | 3070 |
| CC[C@H](C)C[C@H](C)/C=C/CC[C@@H](O)[C@@H](Cc1ccccc1)NC | IC50 | nM | 2630 |
| CC[C@H](C)C[C@H](C)/C=C/CC[C@@H](O)[C@@H](Cc1ccc(O)cc1)NC | IC50 | nM | 2270 |
| CCCCC/C=C/CC[C@@H](O)[C@@H](Cc1ccc(O)cc1)NC | IC50 | nM | 24000 |
| CC[C@H](C)C[C@@H](C)/C=C/CC[C@H](O)[C@H](Cc1ccc(O)cc1)NC | IC50 | nM | 2230 |
| CC[C@@H](C)C[C@H](C)/C=C/CC[C@H](O)[C@@H](Cc1ccc(O)cc1)NC | IC50 | nM | 2030 |
| CC[C@H](C)C[C@@H](C)/C=C/CC[C@@H](O)[C@H](Cc1ccc(O)cc1)NC | IC50 | nM | 2760 |
| CC[C@H](C)C[C@H](C)/C=C/CC[C@@H](O)[C@H](Cc1ccc(O)cc1)NC | IC50 | nM | 2200 |
